# Test system: Pseudomonas aeruginosa
# protocol-description: Antimicrobial activity against carbapenem-susceptible Pseudomonas aeruginosa clinical isolate assessed as resistant isolates
# Format: functional
Activity: recorded values
All answers are understood in %, so give the number only.

Here is how some molecules turned out for Activity.
molecule=NC[C@H]1O[C@H](O[C@H]2[C@H](O)[C@@H](O[C@H]3O[C@H](CO)[C@@H](O)[C@H](N)[C@H]3O)[C@H](N)C[C@@H]2N)[C@H](N)C[C@@H]1O readout_number=9
molecule=NCC[C@H](O)C(=O)N[C@@H]1C[C@H](N)[C@@H](O[C@H]2O[C@H](CN)[C@@H](O)[C@H](O)[C@H]2O)[C@H](O)[C@H]1O[C@H]1O[C@H](CO)[C@@H](O)[C@H](N)[C@H]1O readout_number=9
molecule=CC(C)(O/N=C(\C(=O)N[C@@H]1C(=O)N2C(C(=O)[O-])=C(C[n+]3ccccc3)CS[C@H]12)c1csc(N)n1)C(=O)O readout_number=11
molecule=CC1(C)S[C@@H]2[C@H](NC(=O)[C@H](C(=O)O)c3ccsc3)C(=O)N2[C@H]1C(=O)O readout_number=11
molecule="CC1COc2c(N3CCN(C)CC3)c(F)cc3c(=O)c(C(=O)O)cn1c23 (stereo unspecified)" readout_number=32

In: Bench note: what Activity did CCN1CCN(C(=O)N[C@@H](C(=O)N[C@@H]2C(=O)N3[C@@H]2SC(C)(C)[C@@H]3C(=O)O)c2ccccc2)C(=O)C1=O show?
Out: 9

Numbers sourced from ChEMBL document CHEMBL1151445.
